Assay: Cytostatic activity against human Hs578 cells after 5 days by SRB assay
Assay type: functional
Details: Hs578, 120 h
Each record here notes measured GI50.
The response must be a number in µM with no trailing unit.

// known answers, use as guide
OCc1ncnc2c1ccn2[C@@H]1O[C@H](CO)[C@@H](O)[C@H]1O	0.053
OC[C@H]1O[C@@H](n2ccc3c(-c4ccc[se]4)ncnc32)[C@H](O)[C@@H]1O	0.29
OC[C@H]1O[C@@H](n2ccc3c(-c4cc[nH]c4)ncnc32)[C@H](O)[C@@H]1O	0.44
OC[C@H]1O[C@@H](n2ccc3c(-c4ccc(F)cc4)ncnc32)[C@H](O)[C@@H]1O	2.5
OC[C@H]1O[C@@H](n2cc(Cl)c3c(-c4ccsc4)ncnc32)[C@H](O)[C@@H]1O	0.11

In: Can you share its GI50? I mean this compound: OC[C@H]1O[C@@H](n2cc(F)c3c(-c4nccs4)ncnc32)[C@H](O)[C@@H]1O
Out: 0.57

In: // query: OC[C@H]1O[C@@H](n2ccc3c(-c4cccs4)ncnc32)[C@H](O)[C@@H]1O
Out: 0.1

In: // query: OC[C@H]1O[C@@H](n2ccc3c(-c4ccsc4)ncnc32)[C@H](O)[C@@H]1O
Out: 0.71
